Test name: Percent killing of the total Escherichia coli K12 (ATCC 25868) cells at the C50 concentration was determined.
Type: ADME
Reported property: Kill at C50 (%)
Number in %, nothing else.

Which Kill at C50 is reported for this compound? NCC1CCC(N)C(OC2C(N)CC(N)C(OC3OC(CO)C(O)C(N)C3O)C2O)O1 (stereo not drawn) 74

Look up Kill at C50: `NC[C@H]1O[C@H](O[C@@H]2[C@@H](O)[C@H](O[C@@H]3[C@H](O)[C@H](N)C[C@@H](N)[C@H]3O[C@H]3O[C@@H](CO)[C@@H](O)C[C@@H]3N)O[C@@H]2CO)[C@@H](N)[C@@H](O[C@H]2O[C@H](CO)[C@@H](O)[C@H](O)[C@@H]2O)[C@@H]1O` 78

Return reported Kill at C50; argument: CNC1C(OC2OC(CO)C(N)C(O)C2O)OC2CC(NC(=O)CN)C(OC3C(N)CC(N)C(O)C3O)OC2C1O (stereo not drawn) 53
